I'd appreciate it if you could supply pIC50 values for the items below.
target: Cholinesterase (Equus caballus, UniProt P81908); assay: Inhibition of equine serum BuchE using butyrylthiocholine as substrate by Ellman's method
Sequence (P81908 whole entry): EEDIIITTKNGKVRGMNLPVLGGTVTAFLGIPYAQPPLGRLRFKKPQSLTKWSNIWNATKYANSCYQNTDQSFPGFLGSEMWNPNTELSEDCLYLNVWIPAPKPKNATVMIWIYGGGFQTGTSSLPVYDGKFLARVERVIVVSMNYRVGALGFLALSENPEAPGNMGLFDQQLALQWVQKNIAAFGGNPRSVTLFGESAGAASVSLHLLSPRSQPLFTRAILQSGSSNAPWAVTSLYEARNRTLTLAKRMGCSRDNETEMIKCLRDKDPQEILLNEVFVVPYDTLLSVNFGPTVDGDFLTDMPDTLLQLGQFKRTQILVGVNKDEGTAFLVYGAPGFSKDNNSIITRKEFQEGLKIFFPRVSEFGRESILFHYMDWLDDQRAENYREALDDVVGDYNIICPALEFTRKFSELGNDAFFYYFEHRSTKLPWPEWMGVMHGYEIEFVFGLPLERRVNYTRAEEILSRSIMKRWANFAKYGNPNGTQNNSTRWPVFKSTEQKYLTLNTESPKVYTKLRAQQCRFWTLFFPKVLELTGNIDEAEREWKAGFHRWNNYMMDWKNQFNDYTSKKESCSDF
Answers are plain numbers, as −log10 of the molar value.

# smiles, target-system, pIC50
data = [
    ("CCn1ncc2c(NC3CCCCC3)c(C(=O)NCCCCCCCCNc3c4c(nc5cc(Cl)ccc35)CCCC4)cnc21", "Cholinesterase (Equus caballus, UniProt P81908)", 6.50),
    ("CCn1ncc2c(NC3CCCCC3)c(C(=O)NCCNc3c4c(nc5cc(Cl)ccc35)CCCC4)cnc21", "Cholinesterase (Equus caballus, UniProt P81908)", 6.15),
    ("CCn1ncc2c(NC3CCCCC3)c(C(=O)NCCCCNc3c4c(nc5cc(Cl)ccc35)CCCC4)cnc21", "Cholinesterase (Equus caballus, UniProt P81908)", 5.89),
    ("CCn1ncc2c(NC3CCCCC3)c(C(=O)NCCNc3c4c(nc5ccccc35)CCCC4)cnc21", "Cholinesterase (Equus caballus, UniProt P81908)", 6.05),
    ("CCn1ncc2c(NC3CCCCC3)c(C(=O)NCCCCCCNc3c4c(nc5ccccc35)CCCC4)cnc21", "Cholinesterase (Equus caballus, UniProt P81908)", 6.48),
]

I need pIC50 for every entry listed below, if you could help.
1. CCn1ncc2c(NC3CCCCC3)c(C(=O)NCCCCCCNc3c4c(nc5cc(Cl)ccc35)CCCC4)cnc21
2. CCn1ncc2c(NC3CCCCC3)c(C(=O)NCCCCCCCCNc3c4c(nc5ccccc35)CCCC4)cnc21
3. CCn1ncc2c(NC3CCCCC3)c(C(=O)NCCCCCNc3c4c(nc5ccc(Cl)cc35)CCCC4)cnc21

Return:
1: 6.35; 2: 6.49; 3: 6.36

Cited source: ChEMBL document CHEMBL4387778
